Can you tell me log2 fold change of degron read counts for the items I'm about to list?
- System Tested: T1, CRBN, Q96SW2;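 also: pooled lentiviral library of zinc finger degron-EGFP fusions in mCherry-positive Jurkat cells, FACS-sorted after compound exposure, with degron abundance counted by next-generation sequencing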
- T1 chain: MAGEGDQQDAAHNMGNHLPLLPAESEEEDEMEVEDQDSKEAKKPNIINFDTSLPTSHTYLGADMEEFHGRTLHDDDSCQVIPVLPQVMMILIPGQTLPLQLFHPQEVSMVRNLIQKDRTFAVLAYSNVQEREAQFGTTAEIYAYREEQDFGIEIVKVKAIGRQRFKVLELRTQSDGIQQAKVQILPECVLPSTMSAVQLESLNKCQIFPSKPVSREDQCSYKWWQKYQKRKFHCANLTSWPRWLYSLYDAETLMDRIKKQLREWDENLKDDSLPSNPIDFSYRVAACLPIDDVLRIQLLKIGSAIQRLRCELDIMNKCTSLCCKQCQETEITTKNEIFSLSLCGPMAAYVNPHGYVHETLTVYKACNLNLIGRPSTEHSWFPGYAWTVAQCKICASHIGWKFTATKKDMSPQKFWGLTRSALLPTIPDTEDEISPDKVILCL
- Assay: log2 fold change of degron read counts, EGFP-low vs EGFP+ sorted cells (limma voom), compound-induced degradation; higher = more compound-induced degradation of the degron-EGFP fusion; degrons are variants of IKZF1/3 zinc finger 2; compound dose not given here
- Experimental Conditions: Jurkat; 18 h; compound: compound 33 (diphenyl IMiD analogue)
Over roughly 8,300 sequences, “log2 fold change of degron read counts, EGFP-low vs EGFP+ sorted cells (limma voom), compound-induced degradation” has its median near -1.1; the highest 2% begin near 3.2. What follows is part of a selection rich in the highest values, with near analogues and random picks from the rest.
Write the number on its own, no unit after it.

# log2 fold change of degron read counts lookup, item LKCPICGFSCTQKGNLLRHIKL [46L_47K_49P_50I_52G_53F_54S_55C_67L_, Q9UKT9]
-0.695

Try the sequence FHCEICGAFFTQKGNLLRHIKL [46F_47H_49E_50I_52G_53A_54F_55F_67L_, Q9UKT9]
0.198

Try the sequence LICPICGFCCTQKGNLLRHIKL [46L_47I_49P_50I_52G_53F_54C_55C_67L_, Q9UKT9]
1.85

Try the sequence FSCPICGANFTQKGNLLRHIKL [46F_47S_49P_50I_52G_53A_54N_55F_67L_, Q9UKT9]
1.97

Try the sequence LGCPICGFECTQKGNLLRHIKL [46L_47G_49P_50I_52G_53F_54E_55C_67L_, Q9UKT9]
0.47

Try the sequence LFCPICGFCCTQKGNLLRHIKL [46L_47F_49P_50I_52G_53F_54C_55C_67L_, Q9UKT9]
2.76

Try the sequence FICPVCGAQFTQKGNLLRHIKL [46F_47I_49P_50V_52G_53A_54Q_55F_67L_, Q9UKT9]
2.89

Try the sequence FNCPVCGAQFTQKGNLLRHIKL [46F_47N_49P_50V_52G_53A_54Q_55F_67L_, Q9UKT9]
0.869

Try the sequence FFCSVCGHWFTQKGNLLRHIKL [46F_47F_49S_50V_52G_53H_54W_55F_67L_, Q9UKT9]
-1.38

Try the sequence FECEICGAPFTQKGNLLRHIKL [46F_47E_49E_50I_52G_53A_54P_55F_67L_, Q9UKT9]
1.41

Try the sequence FCCPICGRMFTQKGNLLRHIKL [46F_47C_49P_50I_52G_53R_54M_55F_67L_, Q9UKT9]
0.994

Try the sequence FQCEICGAVFTQKGNLLRHIKL [46F_47Q_49E_50I_52G_53A_54V_55F_67L_, Q9UKT9]
2.34

Try the sequence FQCPVCGAQFTQKGNLLRHIKL [46F_47Q_49P_50V_52G_53A_54Q_55F_67L_, Q9UKT9]
2.51

Try the sequence FRCPICGANFTQKGNLLRHIKL [46F_47R_49P_50I_52G_53A_54N_55F_67L_, Q9UKT9]
1.12

Try the sequence LLCPICGFSCTQKGNLLRHIKL [46L_47L_49P_50I_52G_53F_54S_55C_67L_, Q9UKT9]
1.79

Try the sequence FACPICGHTFTQKGNLLRHIKL [46F_47A_49P_50I_52G_53H_54T_55F_67L_, Q9UKT9]
-2.44

Try the sequence FVCPICGANFTQKGNLLRHIKL [46F_47V_49P_50I_52G_53A_54N_55F_67L_, Q9UKT9]
1.9

Try the sequence LGCEICGFICTQKGNLLRHIKL [46L_47G_49E_50I_52G_53F_54I_55C_67L_, Q9UKT9]
-0.436

Try the sequence LQCPICGFCCTQKGNLLRHIKL [46L_47Q_49P_50I_52G_53F_54C_55C_67L_, Q9UKT9]
2.13

Try the sequence FQCPICGANFTQKGNLLRHIKL [46F_47Q_49P_50I_52G_53A_54N_55F_67L_, Q9UKT9]
2.19

Try the sequence LDCPICGFCCTQKGNLLRHIKL [46L_47D_49P_50I_52G_53F_54C_55C_67L_, Q9UKT9]
0.637

Try the sequence LDCPICGFSCTQKGNLLRHIKL [46L_47D_49P_50I_52G_53F_54S_55C_67L_, Q9UKT9]
1.19

Try the sequence FHCEICGADFTQKGNLLRHIKL [46F_47H_49E_50I_52G_53A_54D_55F_67L_, Q9UKT9]
-1.06

Try the sequence LHCPICGFSCTQKGNLLRHIKL [46L_47H_49P_50I_52G_53F_54S_55C_67L_, Q9UKT9]
2.83

Try the sequence FYCPICGANFTQKGNLLRHIKL [46F_47Y_49P_50I_52G_53A_54N_55F_67L_, Q9UKT9]
2.38

Try the sequence FDCPVCGAQFTQKGNLLRHIKL [46F_47D_49P_50V_52G_53A_54Q_55F_67L_, Q9UKT9]
1.04

Try the sequence LECPICGFSCTQKGNLLRHIKL [46L_47E_49P_50I_52G_53F_54S_55C_67L_, Q9UKT9]
2.42

Try the sequence FCCDQCGAVFTQKGNLLRHIKL [46F_47C_49D_50Q_52G_53A_54V_55F_67L_, Q9UKT9]
-0.705

Try the sequence FKCPICGHLFTQKGNLLRHIKL [46F_47K_49P_50I_52G_53H_54L_55F_67L_, Q9UKT9]
-3.86
